System: DU-145 prostate
Assay: NCI tumour cell line growth inhibition, 48 h
propertyMeasured: GI50

Worked examples, 2 compounds total:
compound | studySystem | obsValue
C=C1C(O)C2C(=C(CC(C)C)C13CC3)C(=O)C(C)(C)C2O (stereo not given) | DU-145 prostate | > 100 µM
Oc1ccc(OCCOc2ccc(O)cc2)cc1 | DU-145 prostate | 2.8 µM

Dear colleague, I am looking for the recorded GI50 of the following compound: `O=C(/C=C/c1c(-c2ccccc2)[nH]c2ccccc12)S(=O)(=O)c1ccccc1`
7.54 µM

// repeat for `O=[N+]([O-])c1cc([N+](=O)[O-])c(NN=C(c2ccc(O)cc2)c2ccc(O)cc2)cc1Cl` and report
1.14 µM

// repeat for `N#Cc1cc(-c2ccnc(Nc3ccc(NC(=O)CCl)cc3)n2)ccc1N1CCCC1` and report
4.17 µM

====

Tested on: MCF7 breast
Test: NCI tumour cell line growth inhibition, 48 h
# reported GI50; entries follow

compound | studySystem | GI50
COC1=C(C)C(=O)N2[C@@H]1[C@H](c1ccccc1)OC21C=CC(=O)C=C1 | MCF7 breast | 1.07 µM

Give the reported GI50 for `CCOC(=O)c1cc(C(=O)c2cc(OC)cc(OC)c2)n2nc(C)ccc12` (system: MCF7 breast).
0.313 µM

// repeat for `Cn1cc(-c2csc(-c3c[nH]c4ccc(F)cc34)n2)c2cccnc21` and report
1.69 µM

// repeat for O=c1[nH]cnc2c1ncn2C1CCC(CO)O1 (stereo not drawn) and report
> 1000 µM

====

System: MALME-3M melanoma
Assay: NCI tumour cell line growth inhibition, 48 h
# reported GI50; entries follow

Worked examples, 2 compounds total:
compound | obsValue
COC1=C(C)C(=O)N2[C@@H]1[C@H](c1ccccc1)OC21C=CC(=O)C=C1 | 1.08 µM
O=C1NC(=O)/C(=C/c2ccc3ncccc3c2)S1 | 7.11 µM

Dear colleague, I am looking for the recorded GI50 of the following compound: `COc1cc(Nc2ncc3c(C)nc(-c4cccc(C(F)(F)F)c4)n3n2)cc(OC)c1OC`
4.39 µM

// repeat for `N#Cc1cc(-c2ccnc(Nc3ccc(NC(=O)CCl)cc3)n2)ccc1N1CCCC1` and report
1.47 µM

// repeat for `CCN(Cc1cc(F)cc(F)c1)c1ccc(CO)c(Cl)c1` and report
15 µM

// repeat for COc1cc(C2CC(c3ccc(SC)cc3)=NN2C(C)=O)cc(OC)c1OC (stereo unspecified) and report
53.6 µM

====

System: RXF 393 renal
Experiment: NCI tumour cell line growth inhibition, 48 h
# label = true if TGI >= 9 µM else false

I'd appreciate it if you could say whether `CCOC(=O)c1c(NNc2ccccc2)nc2ccccc2c1-c1ccccc1` has TGI at least equal to 9 µM.
true

// repeat for `COc1ccc(/C=C/C(=O)c2c(O)c(C)c(O)c3c2OC2=CC(O)=C(C(C)=O)C(=O)[C@]23C)cc1` and report
false

// repeat for `[N-]=[N+]=CC(=O)OC1CCOCC1` and report
true

// repeat for CC(=O)O[C@H]1CC[C@@]2(C)C(=CC[C@@H]3C2CC[C@]2(C)Nc4c(cnn4-c4ccccc4)CC32)C1 (some centres not stated) and report
true

// repeat for CCC1(O)C(=O)OCc2c1cc1n(c2=O)Cc2cc3cc(OC)c(OC)cc3nc2-1 (configuration not stated) and report
true

// repeat for `O=C(c1ccc(Oc2ccccc2)cc1Cl)c1c[nH]c2ncnc(N[C@@H]3CC[C@@H](CO)OC3)c12` and report
false

====

# reported TGI; entries follow
Test system: UO-31 renal
Assay: NCI tumour cell line growth inhibition, 48 h

Worked examples, 5 compounds total:
compound | studySystem | obsValue
COc1cc(C2CC(c3ccc(SC)cc3)=NN2C(C)=O)cc(OC)c1OC (centres undefined) | UO-31 renal | 77.4 µM
C=C1C(O)C2C(=C(CC(C)C)C13CC3)C(=O)C(C)(C)C2O (centres undefined) | UO-31 renal | > 100 µM
COc1ccccc1/C=C/C(=O)c1ccc(Nc2nc(Nc3ccc(F)cc3)nc(Nc3ccc(F)cc3)n2)cc1 | UO-31 renal | > 100 µM
COC(=O)C1=CC(=O)OC1(OO)c1ccc(Br)cc1 (centres undefined) | UO-31 renal | > 100 µM
NC(CCCCO)C(=O)O (centres undefined) | UO-31 renal | > 100 µM

Dear colleague, I am looking for the recorded TGI of the following compound: CCOC(=O)[C@]12C3C=CC(C3)C1C(=O)C1OC12 (some centres undefined)
> 100 µM

// repeat for COC(=O)/C(C#N)=C1\CCC(OC)N1 (centres undefined) and report
> 100 µM

// repeat for Cc1ccc(S(=O)(=O)OCC23CCC(C2)C2CC23)cc1 (centres undefined) and report
> 100 µM

// repeat for `COc1ccc2nccc(/C=C/c3ccc(N(C)C)cc3)c2c1` and report
> 10 µM

// repeat for `O=C(O)/C(=C/c1ccccc1)c1ccccc1` and report
> 100 µM

// repeat for `NCCCNC(=O)c1csc(NC(=O)c2csc(NC(=O)CCCN)n2)n1` and report
> 100 µM

// repeat for `O=c1cn[nH]c2nc3ccccc3n12` and report
> 100 µM

// repeat for `O=C(O)[C@@H](NS(=O)(=O)c1ccc(F)cc1)c1ccccc1` and report
> 100 µM

// repeat for CCOC(=O)CNC(=O)C(CSCC1C(=O)Nc2ccccc21)NC(=O)CCC(N)C(=O)OCC (centres undefined) and report
2.74 µM

====

System: HT29 colon
Test: NCI tumour cell line growth inhibition, 48 h
# reported TGI; entries follow

compound | TGI
O=C1CC(=O)c2c(N3CCCC3)sc(N3CCCC3)c21 | > 100 µM
CCCCc1ccc(NS(=O)(=O)c2cc3c4c(c2)CCN4C(=O)CC3)cc1 | > 100 µM
C=C1C(O)C2C(=C(CC(C)C)C13CC3)C(=O)C(C)(C)C2O (configuration not stated) | > 100 µM
CC1(C)OC(C(C)(C)O)C(C(C)(C)O)O1 (configuration not stated) | > 100 µM

Dear colleague, I am looking for the recorded TGI of the following compound: CCOC(=O)NC(=O)c1cn(CCN2CCN(C(=O)CCCCCCCCCCNc3ncnc4c3ncn4C3OC(CO)C(O)C3O)CC2)c(=O)[nH]c1=O (configuration not stated)
> 100 µM

// repeat for `CCOC(=O)c1c(NNc2ccccc2)nc2ccccc2c1-c1ccccc1` and report
> 100 µM

// repeat for `Cc1ccc(O)c(-c2cc(-c3cccc(Br)c3)c(C#N)c(N)n2)c1` and report
54.7 µM

// repeat for `[O-][n+]1c(-c2ccccc2)oc2ccccc21` and report
59.1 µM

// repeat for CN(C)c1ccc(C2C(Cl)C(=O)N2NC(=O)c2c(Cl)c(Cl)c(Cl)c(Cl)c2-c2nc3ccccc3[nH]2)cc1 (configuration not stated) and report
68.9 µM

// repeat for `O=C(c1ccc(Oc2ccccc2)cc1Cl)c1c[nH]c2ncnc(N[C@@H]3CC[C@@H](CO)OC3)c12` and report
1.47 µM

// repeat for `O=C(CCC(=O)Nc1ccc(Cl)c(Cl)c1)CC(=O)c1ccc(Cl)cc1` and report
> 100 µM

// repeat for CN1C(=O)C(/C=N/NC(=O)c2cccnc2)C(N)N(C)C1=O (configuration not stated) and report
> 100 µM

// repeat for `C=CCN1C(=O)CNC1=S` and report
> 100 µM

// repeat for `CS(=O)(=O)OCOS(C)(=O)=O` and report
> 100 µM

// repeat for NCCC1([N+](=O)[O-])C=CN=CC1 (configuration not stated) and report
> 100 µM

// repeat for CCC1(O)C(=O)OCc2c1cc1n(c2=O)Cc2cc3cc(OC)c(OC)cc3nc2-1 (configuration not stated) and report
> 100 µM

// repeat for `NCCCNC(=O)c1csc(NC(=O)c2csc(NC(=O)CCCN)n2)n1` and report
> 100 µM

// repeat for `Clc1ccc(-c2nc3ccc(Cl)cc3[nH]2)cc1` and report
> 100 µM

// repeat for `Cc1ccc(N=Nc2c(C)nn(-c3ccccc3)c2C)c(Br)c1` and report
> 100 µM

// repeat for `COc1ccccc1/C=C/C(=O)c1ccc(Nc2nc(Nc3ccc(F)cc3)nc(Nc3ccc(F)cc3)n2)cc1` and report
> 100 µM

// repeat for `COc1cc2c(cc1OCCCCCN1C(=O)c3cccc4cccc(c34)C1=O)N=C[C@@H]1CCCN1C2=O` and report
1.5 µM

// repeat for COc1ccc(C(c2ccc(OC)cc2)N2C(=O)CCC2C(=O)O)cc1 (configuration not stated) and report
> 100 µM

====

Test system: MDA-MB-231 breast
Assay: NCI tumour cell line growth inhibition, 48 h; in the data active means GI50 below about 0.43 µM; inactive means the rest
Thanks in advance; please answer with one of these: true (1) for active, false (0) for inactive

Which outcome was assigned to `Cn1c([N+](=O)[O-])cnc1/C=C1\Oc2ccc(Br)cc2C1=O` in this test?
true (1)

// repeat for COc1cc(C2CC(c3ccc(SC)cc3)=NN2C(C)=O)cc(OC)c1OC (stereo unspecified) and report
false (0)

// repeat for `Nc1nc(SCc2ccccc2)nc2[nH]ncc12` and report
false (0)

// repeat for CC(c1ccccc1)N1C(=O)CSC1=S (stereo unspecified) and report
false (0)

// repeat for CSc1ccc(C2=NN(c3ccccc3)C(c3ccc(-c4cc(Cl)c(Cl)cc4Cl)o3)C2)cc1 (stereo unspecified) and report
false (0)

// repeat for `O=C1NC(=O)/C(=C/c2ccc3ncccc3c2)S1` and report
false (0)
